Test system: P. aeruginosa clinical isolate
Experiment: MIC determination, broth microdilution
Format: cell-based
Conditions: Pseudomonas aeruginosa, 37° C., 18-24 hours, read-out: Strain 9 MIC
reported metric: MIC (µg/mL)

Field: example entries. Status: answers known.
- smiles record: "CC1(C)[C@H](NC(=O)/C(=N\\O[C@@H](COc2ccc(C(=N)NC3CCNCC3)cc2)C(=O)O)c2nc(N)sc2Cl)C(=O)N1OS(=O)(=O)O"
  test target: "P. aeruginosa clinical isolate"
  MIC / µg/mL: 2
- smiles record: "CC1(C)[C@H](NC(=O)/C(=N\\O[C@@H](COc2ccc(C(=N)NC3CNC3)cc2)C(=O)O)c2nc(N)sc2Cl)C(=O)N1OS(=O)(=O)O"
  test target: "P. aeruginosa clinical isolate"
  MIC / µg/mL: 1

(I) CC1(C)[C@H](NC(=O)/C(=N\O[C@@H](COc2ccc(C(=N)NC3CCNCC3)cc2)C(=O)O)c2nsc(N)n2)C(=O)N1OS(=O)(=O)O
(II) CC1(C)[C@H](NC(=O)/C(=N\O[C@@H](COc2ccc(C(=N)N[C@H]3CCNC3)cc2)C(=O)O)c2nsc(N)n2)C(=O)N1OS(=O)(=O)O
Select one. Lower MIC: I or II When you have decided, please share the label of that item.
I
(I: 1 µg/mL, II: 2 µg/mL)

Value source: patent US20230295149A1
